Where do the numbers come from? From patent US20260151494A1.

# RLU per record follows
- target or test system: T1, human apical domain of CD71 (human, UniProt P02786 189-383, limits assumed)
- T1 construct: domain: apical domain
- T1 sequence (P02786 189-383 limits assumed): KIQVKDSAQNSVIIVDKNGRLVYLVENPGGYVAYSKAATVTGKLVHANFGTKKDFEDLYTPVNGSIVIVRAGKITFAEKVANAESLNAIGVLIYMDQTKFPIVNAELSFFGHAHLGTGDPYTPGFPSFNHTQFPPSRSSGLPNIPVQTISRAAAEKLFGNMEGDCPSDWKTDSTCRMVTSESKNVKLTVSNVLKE
- test name: primary ELISA; also: test concentration or dose not given here
Report the figure in RLU without appending any unit label.

Below, each entry is followed by its recorded RLU result.
CD71-binding FN3 domain SEQ ID NO 406 (designed binder) MLPAPKNLVVSRVTEDSARLSWTAPDAAFDSFFIDYDESLDSGEAIVLTVPGSERSYDLTGLKPGTEYNVTIQGVKGGFPSSPLEAAFTT | 3.68e+06
CD71-binding FN3 domain SEQ ID NO 352 (designed binder) MLPAPKNLVVSRVTEDSARLSWTAPDAAFDSFEIAYQELSLWGEAIVLTVPGSERSYDLTGLKPGTEYYVHIGGVKGGIWSSPLSAIFTT | 5.42e+06
CD71-binding FN3 domain SEQ ID NO 367 (designed binder) MLPAPKNLVVSRVTEDSARLSWTAPDAAFDSFYIAYAEPRPDGEAILLVVPGSERSYDLTGLKPGTEYSVLIHGVKGGLLSSPLVAFFTT | 6.51e+06
CD71-binding FN3 domain SEQ ID NO 433 (designed binder) MLPAPKNLVVSRVTEDSARLSWTAPDAAFDSFFIGYLEPQPPGEAIALYVPGSERSYDLTGLKPGTEYNVTIQGVKGGFPSLPLEANFTT | 3.57e+06
CD71-binding FN3 domain SEQ ID NO 395 (designed binder) MLPAPKNLVVSRVTEDSARLSWTAPDTAFDSFFIGYLEPQPPGEAIGLFVPGSERSYDLTGLKPGTEYNVTIQGVKGGFPSDPLSAFFTT | 6.59e+06
CD71-binding FN3 domain SEQ ID NO 388 (designed binder) MLPAPKNLVVSRVTEDSARLSWTAPDAAFDSFEIAYFEYCLNGEAIVLTVPGSERSYDLTGLKPGTEYWVQIGGVKGGTWSWPLSAIFTT | 4.29e+06

Exercise: What measured RLU goes with CD71-binding FN3 domain SEQ ID NO 439 (designed binder) MLPAPKNLVVSRVTEDSARLSWTAPDAAFDSFFIGYLEPQPPGEAIHLFVPGSERSYDLTGLKPGTEYNVTIQGVKGGFPSVPLNAYFTT ?
Solution: 6.56e+06

Exercise: What measured RLU goes with CD71-binding FN3 domain SEQ ID NO 441 (designed binder) MLPAPKNLVVSRVTEDSARLSWTAPDAAFDSFFIGYLEPQPPGEAILLWVPGSERSYDLTGLKPGTEYNVTIQGVKGGFPSDPLIANFTT ?
Solution: 5.74e+06

Exercise: What measured RLU goes with CD71-binding FN3 domain SEQ ID NO 401 (designed binder) MLPAPKNLVVSRVTEDSARLSWTAPDAAFDSFFIGYLEPQPPGEAIALWVPGSERSYDLTGLKPGTEYNITIQGVKGGFPSMPLVANFTT ?
Solution: 5.82e+06
